These entries and their values trace back to the Immune Epitope Database (IEDB).

IC50 by entry:
TARGET_DESC: HLA-A*02:01
TEST: IEDB peptide-MHC binding, cellular MHC/competitive/fluorescence; bounds were set here for any values at or beyond the usual limits of such assays
SETTINGS: source organism: Human herpesvirus 5 strain AD169
PROPERTY_NAME: IC50 (µM)

INSERT INTO results (record_sequence, target_desc, property_name, val) VALUES
  ('GLSISGNLL', 'HLA-A*02:01', 'IC50', 16),
  ('MLNIPSINV', 'HLA-A*02:01', 'IC50', 2.5),
  ('VLCPKNMII', 'HLA-A*02:01', 'IC50', 12),
  ('SIYVYALPL', 'HLA-A*02:01', 'IC50', 5),
  ('ALFFFDIDL', 'HLA-A*02:01', 'IC50', 2),
  ('NLLMNGQQI', 'HLA-A*02:01', 'IC50', 5),
  ('ILARNLVPMV', 'HLA-A*02:01', 'IC50', 1),
  ('DIYRIFAEL', 'HLA-A*02:01', 'IC50', 12),
  ('RLLQTGIHV', 'HLA-A*02:01', 'IC50', 2),
  ('YLESFCEDV', 'HLA-A*02:01', 'IC50', 16),
  ('LLQTGIHVRV', 'HLA-A*02:01', 'IC50', 5);
